Experiment: Half life in rat at 5 mg/kg, po and 1 mg/kg, iv
Format: ADME, organism-based
Settings: in vivo
QUANTITY: half-life (h)

MOL SMILES	QUANTITY	NUMERIC VALUE
CC(C)CCN([C@@H](C(=O)NO)C(C)C)S(=O)(=O)c1ccc2ccccc2c1	half-life	5.7

----------
Assay: Clearance in rat at 5 mg/kg, po and 1 mg/kg, iv
Type: ADME, organism-based
Details: in vivo
QUANTITY: clearance (mL/min/kg)

MOLECULE	UNIT NAME	NUMERIC VALUE
CC(C)CCN([C@@H](C(=O)NO)C(C)C)S(=O)(=O)c1ccc2ncccc2c1	mL/min/kg	18.3
CC(C)[C@H](C(=O)NO)N(Cc1cccnc1)S(=O)(=O)c1ccc2ccccc2c1	mL/min/kg	107
CC(C)CCN([C@H](CO)C(=O)NO)S(=O)(=O)c1ccc2ccccc2c1	mL/min/kg	45
CC(C)[C@H](C(=O)NO)N(Cc1ccncc1)S(=O)(=O)c1ccc2ccccc2c1	mL/min/kg	122
CC(C)[C@H](C(=O)NO)N(CCN(C)C)S(=O)(=O)c1ccc2ccccc2c1	mL/min/kg	233
CC(C)CCN([C@@H](C(=O)NO)C(C)(C)C)S(=O)(=O)c1ccc2ccccc2c1	mL/min/kg	26.7
CC(C)[C@H](C(=O)NO)N(CCc1ccccc1)S(=O)(=O)c1ccc2ccccc2c1	mL/min/kg	55
CC(C)CCN([C@@H](C(=O)NO)C(C)O)S(=O)(=O)c1ccc2ccccc2c1 (stereo partly specified)	mL/min/kg	55
CC(C)CCN([C@@H](C(=O)NO)C(C)C)S(=O)(=O)c1ccc2ccccc2n1	mL/min/kg	91.7
CC(C)CCN([C@@H](C(=O)NO)C(C)C)S(=O)(=O)c1ccc2sccc2c1	mL/min/kg	118
CC(C)CCN([C@@H](C(=O)NO)C(C)C)S(=O)(=O)c1ccc2ccccc2c1	mL/min/kg	40
